Assign log10 of IC50 to each entry below.
# TARGET DESC: human SGLT2 (Homo sapiens (Human))
# Sequence (P31639 whole entry): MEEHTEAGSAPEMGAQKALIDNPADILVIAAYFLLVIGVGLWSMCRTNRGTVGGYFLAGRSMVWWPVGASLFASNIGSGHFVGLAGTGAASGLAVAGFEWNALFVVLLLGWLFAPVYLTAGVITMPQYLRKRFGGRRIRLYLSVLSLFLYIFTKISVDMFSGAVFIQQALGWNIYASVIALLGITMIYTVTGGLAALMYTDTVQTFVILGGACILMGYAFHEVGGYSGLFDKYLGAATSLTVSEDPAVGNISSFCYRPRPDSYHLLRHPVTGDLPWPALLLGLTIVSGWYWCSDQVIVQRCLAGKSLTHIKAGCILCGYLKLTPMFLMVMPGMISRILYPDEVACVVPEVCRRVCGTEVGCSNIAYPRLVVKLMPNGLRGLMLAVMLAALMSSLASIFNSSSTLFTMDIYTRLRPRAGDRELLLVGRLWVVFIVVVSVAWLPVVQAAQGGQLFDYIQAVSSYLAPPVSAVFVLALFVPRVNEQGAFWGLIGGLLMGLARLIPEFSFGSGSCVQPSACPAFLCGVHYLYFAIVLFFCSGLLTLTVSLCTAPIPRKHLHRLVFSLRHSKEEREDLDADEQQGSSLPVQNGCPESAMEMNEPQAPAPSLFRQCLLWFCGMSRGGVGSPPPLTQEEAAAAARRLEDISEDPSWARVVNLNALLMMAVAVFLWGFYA
# METHOD NOTES: Inhibitory effect on human SGLT2 activity (14C-AMG uptake in CHO cells expressing hSGLT2)
# Type: cell-based
# PARTICULARS: 14C-AMG transport, CHO cells expressing hSGLT2, 2 hours
The common logarithm of IC50 in nM is what is listed.

Query string: Which log10 of IC50 reading was recorded for the compound Cc1ccc([C@@H]2O[C@H](CO)[C@@H](O)[C@H](O)[C@H]2O)cc1Cc1ccc(-c2ccc(F)cc2)s1 [Canagliflozin, reference compound] ?
Result string: 0.69

Query string: Look at this compound and give its reported log10 of IC50. COc1ccc(Cc2cc([C@@H]3O[C@H](CO)[C@@H](O)[C@H](O)[C@H]3O)c(C)c3c2CCC3)cc1 [Example 1]
Result string: 0.11

Query string: Requested read-out: log10 of IC50. Entry: CCc1ccc(Cc2cc([C@@H]3O[C@H](CO)[C@@H](O)[C@H](O)[C@H]3O)c(CC(C)C)c3c2CCC3)cc1 [Example 65]
Result string: 1.58

Query string: I am curious: what log10 of IC50 value has been reported for CSc1ccc(Cc2cc([C@@H]3O[C@H](CO)[C@@H](O)[C@H](O)[C@H]3O)c(C)c3c2CCC3)cc1 [Example 13] ?
Result string: 0.08

Query string: Recorded log10 of IC50 of CCCCc1c([C@@H]2O[C@H](CO)[C@@H](O)[C@H](O)[C@H]2O)cc(Cc2ccc(C)cc2)c2c1CCC2 [Example 58] , please.
Result string: 1.08

Query string: # input compound: COc1ccc(Cc2cc([C@@H]3O[C@H](CO)[C@@H](O)[C@H](O)[C@H]3O)c(C(C)C)c3c2CCC3)cc1 [Example 61] ; wanted: its log10 of IC50
Result string: 0.31

Query string: Which log10 of IC50 value belongs to CCCc1c([C@@H]2O[C@H](CO)[C@@H](O)[C@H](O)[C@H]2O)cc(Cc2ccc(OC)cc2)c2c1CCC2 [Example 52] ?
Result string: 0.96
